All figures here come from patent US5767126A.

target: acetylcholinesterase (Homo sapiens, UniProt P22303); experiment: Acetylcholinesterase inhibition, photometric method of Ellman; assay type: biochemical; settings: pI is a logarithmic measure of capacity to prevent the action of acetylcholinesterase, read-out: Cholinesterase inhibition pI (converted)
Sequence (P22303 32-614): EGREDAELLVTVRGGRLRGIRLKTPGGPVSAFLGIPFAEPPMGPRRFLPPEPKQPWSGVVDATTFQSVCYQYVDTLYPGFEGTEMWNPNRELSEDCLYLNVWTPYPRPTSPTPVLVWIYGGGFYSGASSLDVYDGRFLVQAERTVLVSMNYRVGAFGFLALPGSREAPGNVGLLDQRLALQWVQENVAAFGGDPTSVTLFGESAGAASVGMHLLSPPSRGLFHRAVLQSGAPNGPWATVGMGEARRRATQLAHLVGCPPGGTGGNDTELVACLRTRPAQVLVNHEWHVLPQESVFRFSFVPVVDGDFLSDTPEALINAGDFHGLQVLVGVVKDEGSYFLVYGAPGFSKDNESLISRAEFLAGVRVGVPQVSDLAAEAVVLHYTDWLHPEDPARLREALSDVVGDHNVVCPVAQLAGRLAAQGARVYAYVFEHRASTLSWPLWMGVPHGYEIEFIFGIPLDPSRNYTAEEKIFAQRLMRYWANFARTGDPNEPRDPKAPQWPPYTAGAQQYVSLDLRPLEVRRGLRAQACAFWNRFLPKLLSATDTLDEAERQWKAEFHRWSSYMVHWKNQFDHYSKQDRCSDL
Field 'label' (enum: 1.0 / 0.0). Set to 1.0 when IC50 is strictly under 200 nM; else 0.0.

Please review the following examples before continuing.
1) Nc1c2ccccc2nc2c(O)cc(O)cc12 [9-amino-2,4-dihydroxyacridine]	1.0
2) Nc1c2c(nc3ccccc13)C=CC(O)C2O (centres unmarked) [9-amino-1,2-dihydroacridin-1,2-diol]	0.0
3) Nc1c2c(nc3ccccc13)CCC(O)C2O (centres unmarked)	0.0
4) Nc1c2c(nc3ccccc13)C(O)C(O)C(O)C2O (centres unmarked)	1.0

Does this compound meet the criterion IC50 < 200 nM? Nc1c2c(nc3ccccc13)C(O)C(O)C(O)C2 (centres unmarked)
1.0

Same question, Nc1c2ccccc2nc2c(O)ccc(O)c12 [9-amino-1,4-dihydroxyacridine] this time
0.0

Can you check Nc1c2c(nc3ccccc13)C(=O)CC(O)C2O (centres unmarked) next?
0.0
